Hey, just so you know, these numbers are from ChEMBL document CHEMBL1201862.

- System: LOX IMVI
- run_description: NCI tumour cell line growth inhibition, 48 h
Active and inactive are the calls of the source. No stated cut-off is given here; in the data, active = GI50 up to about 1.1 µM and inactive = higher.
# reported GI50; entries follow

Recorded results for 2 molecules are shown here.
>  <molecule>
O=C(COC(c1ccc(F)cc1)c1ccc(F)cc1)N1CCN(CCCc2ccccc2)CC1

>  <observed>
4.91 µM (inactive)

$$$$
>  <molecule>
C=C1CC2(CCOc3ccc(Cl)cc32)OC1=O (stereo not given)

>  <observed>
2.44 µM (inactive)

$$$$

**Query** Form field: reported GI50 of Cc1ccccc1NC(=O)c1c(C)oc2c1C(=O)c1ccccc1C2=O
**Result** 16 µM (inactive)

**Query** Try Cc1ccc(C(=N)c2ccccc2Cc2cccc3ccccc23)c2ccccc12 next.
**Result** 80.2 µM (inactive)

**Query** Continue with N#CC(C(=O)/C(=N/NC(=O)c1ccccc1O)C(C#N)c1ccc(Cl)cc1)c1ccc(Cl)cc1 (stereo not given)
**Result** 14.3 µM (inactive)

###

- System: DMS-273
- run_description: NCI tumour cell line growth inhibition, 48 h
Activity calls are given as the source filed them. Cut-off read from the data, not from the text of the source: active = GI50 up to about 1.1 µM and inactive = higher.
Each item that follows carries a reported GI50.

These solved cases illustrate the format of a correct answer.
>  <compound>
N=C(N)SCc1cccc([N+](=O)[O-])c1

>  <observed>
30.2 µM (inactive)

$$$$
>  <compound>
C[C@]12CCC(=O)C=C1CC[C@@H]1[C@@H]2[C@@H](O)C[C@@]2(C)[C@H]1CC[C@]2(O)C(=O)COC(=O)CCC1CCCC1 [HYDROCORTISONE CYPIONATE]

>  <observed>
61.1 µM (inactive)

$$$$
>  <compound>
O=S(=O)(c1ccccc1)C1CN2OC1(S(=O)(=O)c1ccccc1)CC21CCCCC1 (centres undefined)

>  <observed>
82.6 µM (inactive)

$$$$

// next entry
**Query** Could you share what GI50 was measured for CCCN(CCCC(NC(C)=O)C(=O)NCc1ccccc1)C(=O)NCCCl (centres undefined) , tested on DMS-273?
**Result** > 100 µM (inactive)

###

- System: T47D
- run_description: NCI tumour cell line growth inhibition, 48 h
Active and inactive are the calls of the source. No stated cut-off is given here; in the data, active = GI50 up to about 1.1 µM and inactive = higher.
A correct response names exactly one class from True (active), False (inactive)

>  <compound>
COc1ccc(/C=C/C(=O)Oc2ccc(/C=C3\CCCCC3=O)cc2)cc1

>  <cat>
False

$$$$
>  <compound>
CCOC(=O)c1csc(NC(=O)CN2CCN(C)CC2)n1

>  <cat>
False

$$$$
>  <compound>
C=CCN(C(=O)CNC(=O)C(F)(F)F)c1cc(OCc2ccccc2)c2c(c1)c(C)cn2S(=O)(=O)c1ccccc1

>  <cat>
False

$$$$
>  <compound>
CC1(C)[C@@H](Cn2cc(I)c(=O)[nH]c2=O)CC[C@@]1(C)CO

>  <cat>
False

$$$$
>  <compound>
CC(=O)O[C@@H]1[C@H](C(C)C)[C@@H](OC(C)=O)C/C(C)=C/CC[C@]2(C)O[C@@H]12

>  <cat>
False

$$$$
>  <compound>
CC(CC(N)C(=O)O)C(=O)O (stereo unspecified)

>  <cat>
False

$$$$
>  <compound>
COC(=O)C1(C)CCc2c(ccc3ccccc23)C1=O (stereo unspecified)

>  <cat>
False

$$$$
>  <compound>
Clc1ccc2c(NCCNC3CCCCC3)ccnc2c1

>  <cat>
False

$$$$

**Query** Which outcome was assigned to Cc1c(CCCl)c(=O)n2c([nH]c3ccccc32)c1C#N in this test?
**Result** False

**Query** Now the same for CCN(CC)P(=O)(c1ccc2c(c1)OCCOCCOCCOCCO2)N(CC)CC
**Result** False

**Query** Same question for N#CC(C#N)=C1c2ccccc2C(=NN)c2ccccc21 please.
**Result** True

###

GI50 overview
- Test system: SK-MEL-5
- run_description: NCI tumour cell line growth inhibition, 48 h
Active and inactive are the calls of the source. Cut-off read from the data, not from the text of the source: active = GI50 up to about 1.1 µM and inactive = higher.

>  <compound_string>
Cc1ccc2c(sc(-c3ccc4c(c3)sc(-c3ccc(N(C)C)cc3)[n+]4C)[n+]2C)c1S(=O)(=O)O.Cc1ccc2c(sc(-c3ccc4c(c3)sc(-c3ccc5c(c3)sc(-c3ccc(N(C)C)cc3)[n+]5C)[n+]4C)[n+]2C)c1S(=O)(=O)O

>  <test_target>
SK-MEL-5

>  <observed>
> 100 µM (inactive)

$$$$
>  <compound_string>
Cc1noc(-c2ccc(C(=O)O)[nH]2)c1Br

>  <test_target>
SK-MEL-5

>  <observed>
> 100 µM (inactive)

$$$$
>  <compound_string>
Cc1ccc(/N=N/C(=NNC(=O)c2ccc(C)cc2)c2ccc(N(C)C)cc2)cc1

>  <test_target>
SK-MEL-5

>  <observed>
15.5 µM (inactive)

$$$$

**Query** Notebook: pull reported GI50 for SK-MEL-5, entry CCOC(=O)c1csc(NC(=O)CN2CCN(C)CC2)n1
**Result** > 100 µM (inactive)

###

- Tested on: NCI/ADR-RES
- run_description: NCI tumour cell line growth inhibition, 48 h
Calls of active or inactive are those of the source. No stated cut-off is given here; in the data, active = GI50 up to about 1.1 µM and inactive = higher.
recorded_endpoint: GI50

>  <compound>
COc1c(OC(C)C)c(OC(C)C)c2oc(=O)n3c2c1C(c1ccccc1-n1c(C)ccc1C)C=C3 (stereo not given)

>  <GI50>
33.6 µM (inactive)

$$$$
>  <compound>
COC(=O)c1c(CC(Cc2ccc3c(c2)CCCC3)C(=O)O)ccc2c1CCCC2 (stereo not given)

>  <GI50>
17.9 µM (inactive)

$$$$
>  <compound>
C/C(=N\N=C(N)N)c1c(C(=O)OCCCCCCOC(=O)c2nc3sccn3c2/C(C)=N/N=C(N)N)nc2sccn12

>  <GI50>
> 100 µM (inactive)

$$$$

**Query** Record request: GI50 value, item Cc1noc(-c2ccc(C(=O)O)[nH]2)c1Br
**Result** 50.5 µM (inactive)

**Query** # iterate: CC(C)NCC(O)c1ccc(OCc2ccccc2)c(OCc2ccccc2)c1-c1ccccc1 (stereo not given)
**Result** 2 µM (inactive)

###

GI50: recorded values
- Tested on: IGROV-1
- run_description: NCI tumour cell line growth inhibition, 48 h
Active and inactive are the calls of the source. Cut-off read from the data, not from the text of the source: active = GI50 up to about 1.1 µM and inactive = higher.

Examples from the recorded data:
>  <compound>
CCCCCCCCCCCCCCCCCCOCC(CO[PH](=O)O)OCCCCCCCCCCCCCCCCCC (stereo unspecified)

>  <observed>
> 50 µM (inactive)

$$$$
>  <compound>
COc1ccc(C2=Nc3cc(C)c(C)cc3NC(c3ccccc3)C2)cc1 (stereo unspecified)

>  <observed>
> 100 µM (inactive)

$$$$
>  <compound>
Nc1ccccc1C(=O)C(Br)C(Br)c1ccc2c(c1)OCO2 (stereo unspecified)

>  <observed>
28.6 µM (inactive)

$$$$
>  <compound>
N/C(=N\c1ccccc1)c1ccccc1N

>  <observed>
> 100 µM (inactive)

$$$$
>  <compound>
CC(=O)c1cc2ccccc2oc1=O [3-ACETYLCOUMARIN]

>  <observed>
> 100 µM (inactive)

$$$$

**Query** Consider the compound Cc1cc(C)n(-c2nsc3ccccc23)n1 and give its measured GI50.
**Result** > 100 µM (inactive)

###

Quick reference: GI50 of the listed items.
- System: UO-31
- run_description: NCI tumour cell line growth inhibition, 48 h
Activity calls are given as the source filed them. Cut-off read from the data, not from the text of the source: active = GI50 up to about 1.1 µM and inactive = higher.

>  <molecule>
CC(NC(=O)C(CC(=O)OCc1ccccc1)NC(=O)OCc1ccccc1)c1ccccc1 (stereo not given)

>  <test_target>
UO-31

>  <GI50>
> 100 µM (inactive)

$$$$
>  <molecule>
O=C(O)c1c2c(cc3c1CC1(Cc4ccccc4C1)C3)CCC2

>  <test_target>
UO-31

>  <GI50>
30.3 µM (inactive)

$$$$
>  <molecule>
COC(=O)[C@]1(Cc2ccc3ccccc3c2)CCCCCCN1C(=O)c1ccccc1

>  <test_target>
UO-31

>  <GI50>
> 21 µM (inactive)

$$$$
>  <molecule>
COc1ccc(NC(=O)CSC(=O)c2ccccc2)c(SCCSSCCSc2cc(OC)ccc2NC(=O)CSC(=O)c2ccccc2)c1

>  <test_target>
UO-31

>  <GI50>
73.6 µM (inactive)

$$$$

// moving on: another record for GI50
**Query** Data request, read-out GI50, for COCC(=O)OC1CCn2c1nc1c2C(=O)C(C)=C(NC(C)=O)C1=N (stereo not given)
**Result** 11.6 µM (inactive)

###

- Test system: HOP-62
- run_description: NCI tumour cell line growth inhibition, 48 h
Calls of active or inactive are those of the source. Rule as the data show it: active = GI50 up to about 1.1 µM and inactive = higher.
Classes to choose from: YES for active, NO for inactive

// known answers, use as guide
>  <molecule>
CC1(C)COC(C23C4C5C2C2C3C4C52I)=N1 (stereo unspecified)

>  <test_target>
HOP-62

>  <cat>
NO

$$$$
>  <molecule>
CCOC(=O)/C(C[C@H]1OC(C)(C)O[C@@H]1[C@H]1COC(C)(C)O1)=N/O

>  <test_target>
HOP-62

>  <cat>
NO

$$$$

**Query** Name the outcome recorded for COc1ccc(OC)c(CSc2ccc(OC)c(OC)c2)c1 in the assay.
**Result** NO

**Query** Queued: O=C(NC1CCC(=O)N1C(=O)OCc1ccccc1)OCc1ccccc1 (stereo unspecified)
**Result** NO

**Query** Continue with CCCCC/C=C1\CC(CO)(COC(=O)CC(C(C)C)C(C)C)OC1=O (stereo unspecified)
**Result** NO

**Query** Next record, please: COc1ccccc1NC(=O)CC(=O)n1nc(C)c(/N=N/c2ccccc2F)c1C
**Result** NO

**Query** Please answer likewise for COc1ccc2cc(/C=N\NC(=O)Nc3ccc([N+](=O)[O-])cc3)ccc2c1
**Result** NO

**Query** Lookup COc1ccc(/C=N/n2c(C)n[nH]c2=O)cc1
**Result** NO

**Query** Same for C=CC(=O)N1C/C(=C\c2ccc(F)cc2)C(=O)/C(=C/c2ccc(F)cc2)C1
**Result** YES

**Query** Moving on to O=c1c2cccnc2[nH]c2ccc3[nH]ncc3c12
**Result** NO

**Query** Could you do the same for Cn1cnnc1Sc1c([N+](=O)[O-])ncn1C , please?
**Result** NO
